- study.system: UniProt P47746
- Sequence (P47746 whole entry): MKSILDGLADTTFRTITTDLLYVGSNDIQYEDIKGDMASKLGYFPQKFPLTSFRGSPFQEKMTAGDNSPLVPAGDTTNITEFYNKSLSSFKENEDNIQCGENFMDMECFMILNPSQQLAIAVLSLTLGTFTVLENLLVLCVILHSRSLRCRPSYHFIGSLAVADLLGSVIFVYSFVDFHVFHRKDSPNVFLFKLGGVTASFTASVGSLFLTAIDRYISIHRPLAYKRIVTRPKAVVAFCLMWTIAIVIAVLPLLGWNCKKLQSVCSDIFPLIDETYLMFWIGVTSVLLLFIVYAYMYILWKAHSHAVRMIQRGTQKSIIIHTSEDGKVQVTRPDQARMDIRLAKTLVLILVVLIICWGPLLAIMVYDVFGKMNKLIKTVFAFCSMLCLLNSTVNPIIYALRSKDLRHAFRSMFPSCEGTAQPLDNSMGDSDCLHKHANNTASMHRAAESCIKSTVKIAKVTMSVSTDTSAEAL
- procedure.details: cell-based
- condition.context: EC50, inhibition of forskolin-stimulated cAMP accumulation, CRIP1a KD cells; 1 μM forskolin, 4 min
parameter.measured: pEC50
# pEC50 is unitless: minus log10 of the molar concentration; print number only

Can you look up pEC50 on UniProt P47746 for `CCCCCCC(C)(C)c1ccc([C@@H]2C[C@H](O)CC[C@H]2CCCO)c(O)c1` ? 9.70
